Reference source: patent US20110105738A1

System: CEF (chicken embryo fibroblasts)
condition description: 100 μg/mL
For each record, write down the corresponding Cytotoxicity, MTT assay reading.

Some molecules with recorded Cytotoxicity, MTT assay reading:
# molecule, result
records = [
    ("O=C(/C=C/CCc1ccc(O)cc1)CCc1ccc(O)c(O)c1 [12B-AJ-7A-1]", 0.411),
    ("O=C(CCc1ccc(O)c(O)c1)CC(CCc1ccc(O)cc1)O[C@@H]1OC[C@@H](O)[C@H](O)[C@H]1O (stereo partly shown) [12B-AJ-11B-1]", 0.316),
    ("O=C(CCc1ccc(O)cc1)C[C@H](CCc1ccc(O)cc1)O[C@@H]1OC[C@@H](O)[C@H](O)[C@H]1O [12B-AJ-16A]", 0.302),
]

Let us move to another entry and its Cytotoxicity, MTT assay reading.
Query: Recorded Cytotoxicity, MTT assay reading of O=C(/C=C/CCc1ccc(O)c(O)c1)CCc1ccc(O)c(O)c1 [12B-AJ-7B] , please.
Reply: 0.427

###

For each record, write down the corresponding Cytotoxicity, MTT assay reading.
Tested on: CEF (chicken embryo fibroblasts)
condition description: 6.25 μg/mL
Answers are plain numbers.

# molecule, Cytotoxicity, MTT assay reading
data = [
    ("O=C(CCc1ccc(O)c(O)c1)CC(CCc1ccc(O)cc1)O[C@@H]1OC[C@@H](O)[C@H](O)[C@H]1O (stereo partly shown) [12B-AJ-11B-1]", 0.535),
    ("O=C(/C=C/CCc1ccc(O)c(O)c1)CCc1ccc(O)c(O)c1 [12B-AJ-7B]", 0.413),
    ("O=C(/C=C/CCc1ccc(O)cc1)CCc1ccc(O)c(O)c1 [12B-AJ-7A-1]", 0.424),
]

Query: Recorded Cytotoxicity, MTT assay reading of O=C(CCc1ccc(O)cc1)C[C@H](CCc1ccc(O)cc1)O[C@@H]1OC[C@@H](O)[C@H](O)[C@H]1O [12B-AJ-16A] , please.
Reply: 0.441

###

System: CEF (chicken embryo fibroblasts)
condition description: 25 μg/mL
assay endpoint: Cytotoxicity, MTT assay reading
Give bare numbers.

# compound, quantitative result
data = [
    ("O=C(/C=C/CCc1ccc(O)cc1)CCc1ccc(O)c(O)c1 [12B-AJ-7A-1]", 0.347),
    ("O=C(CCc1ccc(O)cc1)C[C@H](CCc1ccc(O)cc1)O[C@@H]1OC[C@@H](O)[C@H](O)[C@H]1O [12B-AJ-16A]", 0.432),
]

Answer for every listed entry: what is its Cytotoxicity, MTT assay reading? The entries follow.
1. O=C(/C=C/CCc1ccc(O)c(O)c1)CCc1ccc(O)c(O)c1 [12B-AJ-7B]
2. O=C(CCc1ccc(O)c(O)c1)CC(CCc1ccc(O)cc1)O[C@@H]1OC[C@@H](O)[C@H](O)[C@H]1O (stereo partly shown) [12B-AJ-11B-1]

Reply:
0.345
0.483

###

Test system: CEF (chicken embryo fibroblasts)
condition description: 50 μg/mL
assay endpoint: Cytotoxicity, MTT assay reading
Numbers only.

Some compounds with recorded Cytotoxicity, MTT assay reading:
# compound, Cytotoxicity, MTT assay reading
data = [
    ("O=C(CCc1ccc(O)cc1)C[C@H](CCc1ccc(O)cc1)O[C@@H]1OC[C@@H](O)[C@H](O)[C@H]1O [12B-AJ-16A]", 0.451),
    ("O=C(/C=C/CCc1ccc(O)cc1)CCc1ccc(O)c(O)c1 [12B-AJ-7A-1]", 0.478),
    ("O=C(CCc1ccc(O)c(O)c1)CC(CCc1ccc(O)cc1)O[C@@H]1OC[C@@H](O)[C@H](O)[C@H]1O (stereo partly shown) [12B-AJ-11B-1]", 0.487),
]

Let us move to another entry and its Cytotoxicity, MTT assay reading.
Query: So what Cytotoxicity, MTT assay reading did O=C(/C=C/CCc1ccc(O)c(O)c1)CCc1ccc(O)c(O)c1 [12B-AJ-7B] get with CEF (chicken embryo fibroblasts)?
Reply: 0.399

###

Test system: CEF (chicken embryo fibroblasts)
condition description: 200 μg/mL
For each record, write down the corresponding Cytotoxicity, MTT assay reading.
One number for each entry.

Some compounds with recorded Cytotoxicity, MTT assay reading:
# compound, system tested, quantitative result
rows = [
    ("O=C(/C=C/CCc1ccc(O)cc1)CCc1ccc(O)c(O)c1 [12B-AJ-7A-1]", "CEF (chicken embryo fibroblasts)", 0.531),
    ("O=C(/C=C/CCc1ccc(O)c(O)c1)CCc1ccc(O)c(O)c1 [12B-AJ-7B]", "CEF (chicken embryo fibroblasts)", 0.560),
    ("O=C(CCc1ccc(O)cc1)C[C@H](CCc1ccc(O)cc1)O[C@@H]1OC[C@@H](O)[C@H](O)[C@H]1O [12B-AJ-16A]", "CEF (chicken embryo fibroblasts)", 0.309),
]

Let us move to another entry and its Cytotoxicity, MTT assay reading.
Query: So what Cytotoxicity, MTT assay reading did O=C(CCc1ccc(O)c(O)c1)CC(CCc1ccc(O)cc1)O[C@@H]1OC[C@@H](O)[C@H](O)[C@H]1O (stereo partly shown) [12B-AJ-11B-1] get with CEF (chicken embryo fibroblasts)?
Reply: 0.363

###

System: CEF (chicken embryo fibroblasts)
condition description: 12.5 μg/mL
For each record, write down the corresponding Cytotoxicity, MTT assay reading.
Numbers only.

Answer for every listed entry: what is its Cytotoxicity, MTT assay reading? The entries follow.
1. O=C(CCc1ccc(O)cc1)C[C@H](CCc1ccc(O)cc1)O[C@@H]1OC[C@@H](O)[C@H](O)[C@H]1O [12B-AJ-16A]
2. O=C(CCc1ccc(O)c(O)c1)CC(CCc1ccc(O)cc1)O[C@@H]1OC[C@@H](O)[C@H](O)[C@H]1O (stereo partly shown) [12B-AJ-11B-1]
3. O=C(/C=C/CCc1ccc(O)c(O)c1)CCc1ccc(O)c(O)c1 [12B-AJ-7B]
4. O=C(/C=C/CCc1ccc(O)cc1)CCc1ccc(O)c(O)c1 [12B-AJ-7A-1]

Reply:
[0.427, 0.399, 0.364, 0.418]
